- assay_target: human DLL3 protein (extracellular segment, His tag) (human) (UniProt Q9NYJ7)
- Sequence (Q9NYJ7 27-492): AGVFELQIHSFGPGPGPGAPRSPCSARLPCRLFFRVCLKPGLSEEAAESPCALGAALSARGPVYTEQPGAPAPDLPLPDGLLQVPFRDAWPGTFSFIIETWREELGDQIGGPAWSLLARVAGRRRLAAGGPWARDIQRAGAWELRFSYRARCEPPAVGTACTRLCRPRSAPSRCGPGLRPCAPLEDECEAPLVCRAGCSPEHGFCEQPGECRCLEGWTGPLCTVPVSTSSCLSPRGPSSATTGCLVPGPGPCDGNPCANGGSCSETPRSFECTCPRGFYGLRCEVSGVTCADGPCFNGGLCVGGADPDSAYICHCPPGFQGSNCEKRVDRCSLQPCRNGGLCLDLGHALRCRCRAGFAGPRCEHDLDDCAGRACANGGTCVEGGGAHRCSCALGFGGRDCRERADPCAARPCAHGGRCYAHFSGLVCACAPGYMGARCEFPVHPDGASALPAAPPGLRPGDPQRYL
- protocol_description: SPR (Biacore 8K), antibody captured on Protein A chip, DLL3 antigen in solution, 1:1 Langmuir fit
endpoint: kon (M⁻¹ s⁻¹)
Express it in M⁻¹ s⁻¹; write the number only.

>  <binder>
Hab015VL4VH6a-hFc (scFv, part only; not given: scFv linker and human IgG1 Fc, V domains shown, not shown: another chain or arm of the molecule; a dimerising Fc or GST; small tags and cut ends) VL: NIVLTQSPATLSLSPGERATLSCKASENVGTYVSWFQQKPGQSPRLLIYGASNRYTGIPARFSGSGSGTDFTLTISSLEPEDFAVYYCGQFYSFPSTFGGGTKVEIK VH: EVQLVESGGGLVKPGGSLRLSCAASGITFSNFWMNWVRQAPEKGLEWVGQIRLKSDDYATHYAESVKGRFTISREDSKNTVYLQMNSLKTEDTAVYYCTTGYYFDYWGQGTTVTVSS

>  <kon, M⁻¹ s⁻¹>
1.75e+06

$$$$

I'd like to know its kon. The binder in question is Hab006VL4VH2-hFc (scFv, part only; not given: scFv linker and human IgG1 Fc, V domains shown, not shown: another chain or arm of the molecule; a dimerising Fc or GST; small tags and cut ends) VL: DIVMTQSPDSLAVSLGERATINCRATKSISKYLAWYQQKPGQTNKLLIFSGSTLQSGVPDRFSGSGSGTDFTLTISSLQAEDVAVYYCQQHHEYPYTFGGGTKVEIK VH: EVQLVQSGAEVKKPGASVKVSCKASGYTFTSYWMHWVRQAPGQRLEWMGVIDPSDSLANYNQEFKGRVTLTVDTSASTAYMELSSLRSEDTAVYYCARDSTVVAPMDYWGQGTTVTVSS
394000

I'd like to know its kon. The binder in question is Hab014VL2VH1-hFc (scFv, part only; not given: scFv linker and human IgG1 Fc, V domains shown, not shown: another chain or arm of the molecule; a dimerising Fc or GST; small tags and cut ends) VL: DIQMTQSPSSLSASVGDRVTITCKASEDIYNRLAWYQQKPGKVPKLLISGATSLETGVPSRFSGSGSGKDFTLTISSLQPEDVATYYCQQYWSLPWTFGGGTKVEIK VH: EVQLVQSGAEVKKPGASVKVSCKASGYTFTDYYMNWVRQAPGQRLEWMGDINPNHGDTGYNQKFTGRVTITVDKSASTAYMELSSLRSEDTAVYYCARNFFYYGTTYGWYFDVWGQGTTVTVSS
1.21e+06
